target: mouse ACVR2A (mouse, UniProt P27038 20-135, limits assumed); experiment: ELISA; also: test concentration or dose not given here
Sequence (P27038 20-135 limits assumed): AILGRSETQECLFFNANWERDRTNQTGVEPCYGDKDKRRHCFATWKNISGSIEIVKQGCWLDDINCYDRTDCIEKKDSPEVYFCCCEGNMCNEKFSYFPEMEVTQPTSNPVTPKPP
Measure name: optical density (OD)
Give bare numbers, in OD.

Recorded results for 2 binders are shown here.
365_F11 (antibody, V domains shown, Group I) VH: EVQLLESGGGLVQPGGSLRLSCAASGFTFDSYSMNWVRQAPGKGLEWVSGINYNSGYKGYADSVKGRFTISRDNSKNTLYLQMNSLRAEDTAVYYCARAANWHDTHLDYWGQGTLVTVSS VL: DIQMTQSPSSLSASVGDRVTITCRASQSIISYVNWYQQKPGKAPKLLIYAATSRASGVPSRFSGSGSGTDFTLTISSLQPEDFATYYCQQSYNTPLTFGGGTKVEIK: 2.14
371_H02 (antibody, V domains shown, Group I) VH: EVQLLESGGGLVQPGGSLRLSCAASGFTFDDYSMNWVRQAPGKGLEWVSGINYNGGYKSYADSVKGRFTISRDNSKNTLYLQMNSLRAEDTAVYYCARAANWHDTHLDYWGQGTLVTVSS VL: DIQMTQSPSSLSASVGDRVTITCRASQSIISYLNWYQQKPGKAPKLVIYAATSLASGVPSRFSGSGSGTDFTLTISSLQPEDFATYYCQQSYENPLTFGGGTKVEIK: 2.03

In the following, a different binder is considered.
Task: For the binder 368_B08 (antibody, V domains shown, Group I) VH: EVQLLESGGGLVQPGGSLRLSCAASGFTFDSYGMNWVRQAPGKGLEWVSSINYNGGYTSYADSVKGRFTISRDNSKNTLYLQMNSLRAEDTAVYYCARAANWHDTHLDYWGQGTLVTVSS VL: DIQMTQSPSSLSASVGDRVTITCRASQSILTYVNWYQQKPGKAPKLVIYAATSRASGVPSRFSGSGSGTDFTLTISSLQPEDFATYYCQQSYENPLTFGGGTKVEIK , what optical density is on record?
Output: 2.18
